Values were extracted from PubChem BioAssay AID1963866.

Each item that follows carries a reported viability, T/C.
# Test system: PDC KRAS tumor spheroids with HUVEC/MSC, viability;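 also: spheroids exposed to compounds for seven days before readout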
# method-summary: Anticancer human tumor 349418-098-R-PDC patient-derived lung adenocarcinoma cell line growth inhibition [KRAS2]
# cond: second compound 10 µM; first compound 1 µM; stronger effect = lower value
# Source text: Multicellular complex tumor spheroid response to RAS pathway inhibitors in combination with a targeted agents in patient-derived cell lines with oncogenic KRAS variants from multiple cancer types A high-throughput screen of multi-cell type tumor spheroids was designed to identify active combinations of targeted small molecules and KRAS pathway inhibitors. […] Compounds. […] If the clinical Cmax for an agent had not been determined, the highest concentration tested was 10 microM. […]
value-type: viability, T/C

compound	system-tested	reported-measurement
COC(=O)c1ccc2c(C(=Nc3ccc(N(C)C(=O)CN4CCN(C)CC4)cc3)c3ccccc3)c(O)[nH]c2c1 + CNCc1ccccc1-c1csc(C(C)Nc2nc(C)nc3cc(OC)c(OC)cc23)c1	PDC KRAS tumor spheroids with HUVEC/MSC, viability	0.06%
CC1(C)CCC(CN2CCN(c3ccc(C(=O)NS(=O)(=O)c4ccc(NCC5CCOCC5)c([N+](=O)[O-])c4)c(Oc4cnc5[nH]ccc5c4)c3)CC2)=C(c2ccc(Cl)cc2)C1 + CC1OCC2(CCN(c3cnc(Sc4ccnc(N)c4Cl)c(N)n3)CC2)C1N	PDC KRAS tumor spheroids with HUVEC/MSC, viability	60.8%
Cn1nccc1Nc1nccc(-c2cc3c(s2)C(C)(C)N(CCN2CCOCC2)C3=O)n1 + CC1OCC2(CCN(c3cnc(Sc4ccnc(N)c4Cl)c(N)n3)CC2)C1N	PDC KRAS tumor spheroids with HUVEC/MSC, viability	2.89%
O=C(c1cc(Cc2n[nH]c(=O)c3ccccc23)ccc1F)N1CCN(C(=O)C2CC2)CC1 + CC1OCC2(CCN(c3cnc(Sc4ccnc(N)c4Cl)c(N)n3)CC2)C1N	PDC KRAS tumor spheroids with HUVEC/MSC, viability	56.6%
CC(C)NCC(C(=O)N1CCN(c2ncnc3c2C(C)CC3O)CC1)c1ccc(Cl)cc1 (stereo not given) + CC1OCC2(CCN(c3cnc(Sc4ccnc(N)c4Cl)c(N)n3)CC2)C1N	PDC KRAS tumor spheroids with HUVEC/MSC, viability	31%
